The values you see were collected from ChEMBL document CHEMBL5257023.

Readings of growth at 0.1 µM for the listed compounds
tested on: MDA-MB-468; test: Anticancer activity against human MDA-MB-468 cells assessed as cell growth at 0.1 uM incubated for 48 hrs by SRB assay; format: functional; details: read-out: Activity
Structures can show the parent of a compound that is named as a salt.
Write down the numeric answer in % and omit the unit.

Look over these answered cases.
| COMPOUND | UNIT STRING | growth at 0.1 µM |
| --- | --- | --- |
| Cc1ccc(-c2cc3cc(F)ccc3[nH]2)cc1N | % | 100 |
| COc1cccc2c1C(=O)c1c(O)c3c(c(O)c1C2=O)C[C@@](O)(C(=O)CO)C[C@@H]3O[C@H]1C[C@H](N)[C@H](O)[C@H](C)O1 [DOXORUBICIN HYDROCHLORIDE] | % | 83 |
| Cc1ccc(-c2cc(C(N)=O)c3cc(Cl)ccc3n2)o1 | % | 91.9 |
| C[C@H](Oc1ccc(Cl)cc1)C(=O)Nc1sc2c(c1C(N)=O)CCCC2 | % | 100 |

Prompt: Fill in reported growth at 0.1 µM for this entry: `Cc1cc(C)n(C(=O)CNc2ccccc2Cl)n1`
Response: 100

====

tested on: MCF7; assay: Anticancer activity against human MCF7 cells assessed as inhibition of cell growth; type: functional, cell-based
Response field label: string, one of true (IC50 strictly below 0.8 µM) or false.

| STRUCTURE SMILES | ASSIGNED CLASS |
| --- | --- |
| Oc1cccc(-c2nc3cc(F)ccc3s2)c1 | true |
| COc1ccc(-c2nc3cc(F)ccc3s2)cc1Br | false |
| CCOc1ccc(-c2nc3cc(F)ccc3s2)cc1OCC | true |

Prompt: Record `COc1ccc(-c2nc3cc(F)ccc3o2)cc1` : is its IC50 strictly below 0.8 µM?
Response: false

====

Readings of activity at 0.25 h, 0.1 µM for the listed molecules
biological target: CYP1A1 (Homo sapiens, UniProt P04798); assay: Inhibition of recombinant CYP1A1 (unknown origin) assessed as residual enzyme activity using 7-ethoxyresorufin as substrate at 0.1 uM incubated for 15 mins by resorufin dye based spectrofluorimetry (reference value: 100%); assay type: ADME; conditions: recombinant CYP1A1, probe 7-ethoxyresorufin, read-out: Activity
Sequence (P04798 whole entry): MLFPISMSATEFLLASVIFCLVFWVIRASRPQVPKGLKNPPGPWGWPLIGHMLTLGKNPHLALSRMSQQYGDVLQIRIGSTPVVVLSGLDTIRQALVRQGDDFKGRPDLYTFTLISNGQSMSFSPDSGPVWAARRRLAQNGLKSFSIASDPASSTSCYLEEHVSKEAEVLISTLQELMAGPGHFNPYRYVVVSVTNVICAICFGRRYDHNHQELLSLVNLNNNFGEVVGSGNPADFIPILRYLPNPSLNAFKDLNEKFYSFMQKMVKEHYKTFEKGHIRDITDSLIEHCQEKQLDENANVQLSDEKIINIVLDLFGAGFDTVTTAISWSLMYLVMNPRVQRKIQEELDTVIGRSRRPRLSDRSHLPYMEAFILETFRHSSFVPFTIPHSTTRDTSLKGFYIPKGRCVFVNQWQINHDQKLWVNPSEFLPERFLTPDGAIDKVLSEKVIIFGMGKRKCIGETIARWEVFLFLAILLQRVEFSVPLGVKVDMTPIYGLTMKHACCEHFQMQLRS
Write down the numeric answer in % and omit the unit.

Look over these answered cases.
| STRUCTURE SMILES | activity at 0.25 h, 0.1 µM / % |
| --- | --- |
| Cc1sc2[nH]c(CNc3ccc(F)cc3)nc(=O)c2c1C | 85.3 |
| Cc1ccc(-c2cc(C(N)=O)c3cc(Cl)ccc3n2)o1 | 101 |
| Cc1nn(C[C@@H](O)COc2ccc3c(C)cc(=O)oc3c2)c(C)c1C | 98.4 |
| C[C@H](Oc1ccc(Cl)cc1)C(=O)Nc1sc2c(c1C(N)=O)CCCC2 | 97.7 |
| Nc1cc(-c2cc3cc(F)ccc3[nH]2)ccc1F | 60.9 |

Kindly review the next molecule as well.
Prompt: Fill in reported activity at 0.25 h, 0.1 µM for this entry: `Cc1cc(C)n2ncc(C(=O)NCc3ccc(Cl)cc3)c2n1`
Response: 89.8

====

tested on: MDA-MB-435; assay: Anticancer activity against human MDA-MB-435 cells assessed as cell growth at 100 uM incubated for 48 hrs by SRB assay; assay type: functional; details: read-out: Activity
Where a name gives a salt, the structure may show the parent alone.
Response field label: string, one of 1 (growth at 100 µM strictly below 80%) or -1.

Prompt: Record `Cc1sc2[nH]c(CNc3ccc(F)cc3)nc(=O)c2c1C` : is its growth at 100 µM strictly below 80%?
Response: -1

Prompt: Record `Cc1cc(C)n(C(=O)CNc2ccccc2Cl)n1` : is its growth at 100 µM strictly below 80%?
Response: -1

Prompt: Record `Cc1cc(C)n(C(=O)CCn2nc(C)c(Cl)c2C)n1` : is its growth at 100 µM strictly below 80%?
Response: -1

Prompt: Record `NC(=O)c1c(NC(=O)Cc2ccc(F)cc2)sc2c1CCCC2` : is its growth at 100 µM strictly below 80%?
Response: -1

Prompt: Record COc1cccc2c1C(=O)c1c(O)c3c(c(O)c1C2=O)C[C@@](O)(C(=O)CO)C[C@@H]3O[C@H]1C[C@H](N)[C@H](O)[C@H](C)O1 [DOXORUBICIN HYDROCHLORIDE] : is its growth at 100 µM strictly below 80%?
Response: 1

Prompt: Record `C[C@H](Oc1ccc(Cl)cc1)C(=O)Nc1sc2c(c1C(N)=O)CCCC2` : is its growth at 100 µM strictly below 80%?
Response: -1

Prompt: Record `Cc1cc(C)cc(O[C@H](C)C(=O)Nc2ccc(F)c([N+](=O)[O-])c2)c1` : is its growth at 100 µM strictly below 80%?
Response: -1

Prompt: Record `Cc1ccc(-c2cc(C(N)=O)c3cc(Cl)ccc3n2)o1` : is its growth at 100 µM strictly below 80%?
Response: 1

Prompt: Record `Cc1cc(C)n2ncc(C(=O)NCc3ccc(Cl)cc3)c2n1` : is its growth at 100 µM strictly below 80%?
Response: 1

Prompt: Record `Nc1cc(-c2cc3cc(F)ccc3[nH]2)ccc1F` : is its growth at 100 µM strictly below 80%?
Response: 1

Prompt: Record `Cc1ccc(-c2cc3cc(F)ccc3[nH]2)cc1N` : is its growth at 100 µM strictly below 80%?
Response: 1
